Values compiled from patent US20130065883A1.

Tested on: panel of 24 kinases
assay: Kinase selectivity testing (percentage inhibition of 24 kinases at 1 μM)
Format: biochemical
run-conditions: proquinase, MET, 1 uM
observation-type: % inhibiton at 1 uM MET (%)
Give bare numbers, in %.

input: Name the reported % inhibiton at 1 uM MET value associated with the compound COc1cc(NCC2CCNCC2)nc2c1nnn2-c1cccc(OC(F)(F)F)c1
output: 0

input: // same read-out, input: COc1cc(NCC2CCNCC2)nc2c1nnn2-c1cccc(N(C)C)c1
output: 0

input: Next compound: FC(F)(F)c1cccc(-n2nnc3cc(Cl)c(NCC4CCNCC4)nc32)c1
output: 0

Provide the reported % inhibiton at 1 uM MET of each entry below, same order.
1. FC(F)(F)Oc1cccc(-n2nnc3ccc(NCC4CC5(CCNCC5)C4)nc32)c1
2. FC(F)(F)Oc1cccc(-n2nnc3ccc(N4CCCC5(CCCN5)CC4)nc32)c1 (centres unmarked)
3. OC1CCC(Nc2ccc3nnn(-c4cccc(OC(F)(F)F)c4)c3n2)CC1 (stereo in doubt)
4. FC(F)(F)Oc1cccc(-n2nnc3cc(Cl)c(NCC4CCNCC4)nc32)c1
5. FC(F)(F)Oc1cccc(-n2nnc3ccc(NC4CC5(CCNCC5)C4)nc32)c1

output:
2
11
0
19
3

----------
tgt: PIM-1 (Homo sapiens, UniProt P11309)
Construct: histidine tag (C); made in house
Sequence (P11309 whole entry): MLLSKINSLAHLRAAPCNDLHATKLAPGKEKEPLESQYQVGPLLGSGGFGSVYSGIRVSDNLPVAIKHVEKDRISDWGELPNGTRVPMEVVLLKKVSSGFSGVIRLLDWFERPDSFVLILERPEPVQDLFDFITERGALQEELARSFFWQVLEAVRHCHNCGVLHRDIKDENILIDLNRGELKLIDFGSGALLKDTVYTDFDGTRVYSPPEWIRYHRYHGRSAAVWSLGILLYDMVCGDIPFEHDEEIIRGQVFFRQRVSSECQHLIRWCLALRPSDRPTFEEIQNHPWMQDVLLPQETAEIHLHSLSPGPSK
assay: PIM-1 biochemical assay (ADP Hunter)
run-conditions: semi-quantitative class; read-out: PIM1 IC50
pIC50: −log10 of the molar value.
observation-type: pIC50

# annotated cases, reported pIC50 shown
input: // query pIC50 value for entry CC(=O)Nc1ccc(-n2nnc3ccc(NCC4CCN(C)CC4)nc32)cc1
output: < 6.00

input: // next record FC(F)(F)Oc1cccc(-n2nnc3cc(Cl)c(NCC4CC5(CCNCC5)C4)nc32)c1
output: 6.00 to 7.00

Required: pIC50, one value per compound below.
1. Oc1ccc(-n2nnc3ccc(NCC4CCNCC4)nc32)cc1
2. CNCCCNc1ccc2nnn(-c3cccc(OC(F)(F)F)c3)c2n1
3. CCN1CCOC2(CCN(c3ccc4nnn(-c5cccc(OC(F)(F)F)c5)c4n3)CC2)C1
4. FC(F)(F)Oc1cccc(-n2nnc3cc(Br)c(NCC4CCNCC4)nc32)c1

output:
["> 7.00", "6.00 to 7.00", "< 6.00", "> 7.00"]

----------
tgt: PIM-1 (Homo sapiens)
Construct: histidine tag (C); made in house
assay: PIM-1 biochemical assay (ADP Hunter);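 further: recombinant human PIM-1 carrying a C-terminal His tag, kinase activity quantified via ADP formed as the direct enzymatic product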
run-conditions: actual IC50 value in parentheses; read-out: PIM1 IC50
observation-type: IC50 (nM)
Give bare numbers, in nM.

Consider the worked cases shown below.
input: Provide the documented IC50 with PIM-1 (Homo sapiens) as the system for Oc1ccc(-n2nnc3ccc(NCC4CCNCC4)nc32)cc1 [2-32]
output: 11

input: Please give the result for FC(F)(F)Oc1cccc(-n2nnc3ccc(N4CCOC5(CCNCC5)C4)nc32)c1 [2-58] too.
output: 85

input: Now this one: FC(F)(F)c1cccc(-n2nnc3ccc(N4CCCC5(CCCN5)CC4)nc32)c1 (stereo not drawn) [2-81]
output: 71

input: Proceed to FC(F)(F)c1cccc(-n2nnc3cc(Cl)c(NCC4CCNCC4)nc32)c1 [2-83]
output: 21

input: How about COc1cc(NC2CC3(CCNCC3)C2)nc2c1nnn2-c1cccc(N(C)C)c1 [2-96] ?
output: 32

Record IC50 for all entries; do not skip any.
1. CN1CCC(CNc2nc3c(cc2Cl)nnn3-c2cccc(OC(F)(F)F)c2)CC1 [2-55]
2. FC(F)(F)Oc1cccc(-n2nnc3cc(Cl)c(NC4CC5(CCNCC5)C4)nc32)c1 [2-79]
3. O[C@H]1CC[C@@H](Nc2nc3c(cc2Cl)nnn3-c2cccc(OC(F)(F)F)c2)CC1 [2-85]

output:
[90, 33, 74]

input: // fetch PIM-1 (Homo sapiens) IC50 for COc1cc(NCC2CC3(CCNCC3)C2)nc2c1nnn2-c1cccc(N(C)C)c1 [2-94]
output: 9
